Hey, just so you know, these numbers are from ChEMBL document CHEMBL4229569.

PROCEDURE DETAILS: MRT in Sprague-Dawley rat at 20 mg/kg, po by LC-MS/MS analysis
Assay type: ADME, organism-based
REPORTED CONDITIONS: in vivo
Criterion: MRT strictly under 3 h. Met: fulfilled. Not met: not fulfilled.

**Query** Given `Cc1nnc(C(C)C)n1[C@@H]1C[C@H]2CC[C@@H](C1)N2CC[C@H](NC(=O)C1CCC(F)(F)CC1)c1ccsc1` , is recorded MRT strictly lower than 3 h?
**Result** fulfilled

**Query** Given `Cc1nnc(C(C)C)n1[C@@H]1C[C@H]2CC[C@@H](C1)N2CC[C@H](NC(=O)C1CCC(F)(F)CC1)c1cccs1` , is recorded MRT strictly lower than 3 h?
**Result** not fulfilled

**Query** Given `Cc1nnc(C(C)C)n1[C@@H]1C[C@H]2CC[C@@H](C1)N2CC[C@H](NC(=O)C1CCCCC1)c1cccs1` , is recorded MRT strictly lower than 3 h?
**Result** fulfilled

**Query** Given `Cc1ccc([C@H](CCN2[C@@H]3CC[C@H]2C[C@H](n2c(C)nnc2C(C)C)C3)NC(=O)C2CCC(F)(F)CC2)s1` , is recorded MRT strictly lower than 3 h?
**Result** not fulfilled

* * *

Below, each entry is listed with its recorded MRT.
PROCEDURE DETAILS: MRT in dog at 15 mg/kg, po by LC-MS/MS analysis
Type: ADME, organism-based, Canis lupus familiaris
REPORTED CONDITIONS: in vivo
Only the number, expressed in h, is required.

{"columns": ["SMILES REPR", "MRT, h"],
 "data": [
  ["Cc1nnc(C(C)C)n1[C@@H]1C[C@H]2CC[C@@H](C1)N2CC[C@H](NC(=O)C1CCC(F)(F)CC1)c1ccsc1", 2.1]
]}

Notebook: `Cc1nnc(C(C)C)n1[C@@H]1C[C@H]2CC[C@@H](C1)N2CC[C@H](NC(=O)C1CCCC1)c1cccs1` , MRT read as 2.4

* * *

PROCEDURE DETAILS: Cmax in Sprague-Dawley rat at 10 mg/kg, iv by LC-MS/MS analysis
Assay type: ADME, organism-based
Set-up: dose 10 mg/kg, route intravenous
REPORTED CONDITIONS: in vivo
ENDPOINT NAME: Cmax (ng/mL)
Only the number, expressed in ng/mL, is required.

Record excerpt, results attached:
{"columns": ["SMILES REPR", "DATA VALUE"],
 "data": [
  ["Cc1ccc([C@H](CCN2[C@@H]3CC[C@H]2C[C@H](n2c(C)nnc2C(C)C)C3)NC(=O)C2CCC(F)(F)CC2)s1", 1690],
  ["Cc1nnc(C(C)C)n1[C@@H]1C[C@H]2CC[C@@H](C1)N2CC[C@H](NC(=O)C1CCCCC1)c1cccs1", 4320],
  ["Cc1nnc(C(C)C)n1[C@@H]1C[C@H]2CC[C@@H](C1)N2CC[C@H](NC(=O)C1CCC(F)(F)CC1)c1ccsc1", 3780],
  ["Cc1nnc(C(C)C)n1[C@@H]1C[C@H]2CC[C@@H](C1)N2CC[C@H](NC(=O)C1CCC(F)(F)CC1)c1cccs1", 6840]
]}

Next compound, please.
Notebook: `Cc1nnc(C(C)C)n1[C@@H]1C[C@H]2CC[C@@H](C1)N2CC[C@H](NC(=O)C1CCCC1)c1cccs1` , Cmax read as 2220
